B1: MFF (parent)
chain: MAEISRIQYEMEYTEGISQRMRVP

# Variants of: B1
# Protocol description: protein stability index of a GFP-peptide fusion (GPS, HEK-293T) (PSI 1-6); higher = more stable;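 note: lentivirally expressed fusions sorted by FACS into six bins by GFP to DsRed ratio, PSI derived from sequencing read proportions per bin multiplied by bin number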
# Measurement context: c terminus: a fixed tail appended
Property name: protein stability index
# print the numeric value only

Input line: Dear colleague, I am looking for the recorded protein stability index of the following variant: `E10D`
Output line: 2.74

Input line: Same for `I7N`
Output line: 3.6

Input line: Same for `M21D`
Output line: 3.41

Input line: Same for `A2E`
Output line: 3.33

Input line: Same for `E3P`
Output line: 3.31

Input line: Same for `E12C`
Output line: 1.98

Input line: Same for `M21N`
Output line: 3.32

Input line: Same for `R22A`
Output line: 2.63

Input line: Same for `V23W`
Output line: 1.7

Input line: Same for `M11N`
Output line: 3.78

Input line: Same for `E12T`
Output line: 1.86

Input line: Same for `M11G`
Output line: 3.28

Input line: Same for `I7Q`
Output line: 3.43

Input line: Same for `A2H`
Output line: 2.45

Input line: Same for `Q19F`
Output line: 1.56

Input line: Same for `E12V`
Output line: 1.76

Input line: Same for `E10R`
Output line: 2.05

Input line: Same for `E10L`
Output line: 1.66

Input line: Same for `Y13W`
Output line: 2.77

Input line: Same for `E10Y`
Output line: 2.09

Input line: Same for `R20C`
Output line: 2.41

Input line: Same for `P24M`
Output line: 2.21

Input line: Same for `S18D`
Output line: 2.97

Input line: Same for `T14D`
Output line: 4.16

Input line: Same for `V23I`
Output line: 2.07

Input line: Same for `T14Y`
Output line: 2.04

Input line: Same for `Q8C`
Output line: 1.9

Input line: Same for `I17T`
Output line: 3.4

Input line: Same for `Q19H`
Output line: 2.34

Input line: Same for `R20P`
Output line: 2.73

Input line: Same for `R22Y`
Output line: 2.23

Input line: Same for `E3Q`
Output line: 2.07

Input line: Same for `R6Q`
Output line: 3.34

Input line: Same for `P24I`
Output line: 1.91

Input line: Same for `G16W`
Output line: 2.04

Input line: Same for `S5H`
Output line: 2.47

Input line: Same for `G16D`
Output line: 3.02

Input line: Same for `M21K`
Output line: 3.73

Input line: Same for `Y9S`
Output line: 3.42

Input line: Same for `E3S`
Output line: 1.85

Input line: Same for `G16C`
Output line: 2.02

Input line: Same for `M1P`
Output line: 3.45

Input line: Same for `Q8M`
Output line: 1.94

Input line: Same for `I7Y`
Output line: 2.58

Input line: Same for `M11H`
Output line: 3.38

Input line: Same for `Y13N`
Output line: 3.45

Input line: Same for `Y13S`
Output line: 3.79

Input line: Same for `M1T`
Output line: 3.28

Input line: Same for `M21P`
Output line: 3.59

Input line: Same for `R6H`
Output line: 3

Input line: Same for `V23N`
Output line: 2.61

Input line: Same for `R22N`
Output line: 2.36

Input line: Same for `R6V`
Output line: 2.03

Input line: Same for `Y9R`
Output line: 2.88

Input line: Same for `E10P`
Output line: 3.04

Input line: Same for `R20Q`
Output line: 2.3

Input line: Same for `G16I`
Output line: 1.62

Input line: Same for `T14F`
Output line: 1.65

Input line: Same for `R20T`
Output line: 2.66

Input line: Same for `Y9N`
Output line: 3.07

Input line: Same for `Y9V`
Output line: 2.15

Input line: Same for `M1V`
Output line: 2.85

Input line: Same for `Y13C`
Output line: 3.22

Input line: Same for `P24S`
Output line: 2.33

Input line: Same for `S18Q`
Output line: 2.62

Input line: Same for `S5Q`
Output line: 2.36

Input line: Same for `E10N`
Output line: 2.55

Input line: Same for `S5C`
Output line: 1.88

Input line: Same for `S18F`
Output line: 1.97

Input line: Same for `R20S`
Output line: 2.27

Input line: Same for `T14N`
Output line: 3.15

Input line: Same for `G16M`
Output line: 1.88

Input line: Same for `M21A`
Output line: 3.17

Input line: Same for `I4R`
Output line: 3.31

Input line: Same for `V23K`
Output line: 3.43

Input line: Same for `T14L`
Output line: 2.07

Input line: Same for `Q19M`
Output line: 2.65

Input line: Same for `Q8W`
Output line: 1.49

Input line: Same for `I7W`
Output line: 2.02

Input line: Same for `E15S`
Output line: 1.94

Input line: Same for `R20E`
Output line: 3.1

Input line: Same for `I7C`
Output line: 2.56

Input line: Same for `T14V`
Output line: 2.56

Input line: Same for `S18A`
Output line: 1.56

Input line: Same for `I17S`
Output line: 3.52

Input line: Same for `S18P`
Output line: 2.65

Input line: Same for `E12N`
Output line: 2.4

Input line: Same for `I4Q`
Output line: 3.8

Input line: Same for `R6G`
Output line: 3.36

Input line: Same for `S18W`
Output line: 1.89

Input line: Same for `G16V`
Output line: 2.07
